target of assay: HiBit-BRG1 fusion protein (Homo sapiens, UniProt P51532)
Construct: expressed in transfected cells
Sequence (P51532 whole entry, the tested form may be a part): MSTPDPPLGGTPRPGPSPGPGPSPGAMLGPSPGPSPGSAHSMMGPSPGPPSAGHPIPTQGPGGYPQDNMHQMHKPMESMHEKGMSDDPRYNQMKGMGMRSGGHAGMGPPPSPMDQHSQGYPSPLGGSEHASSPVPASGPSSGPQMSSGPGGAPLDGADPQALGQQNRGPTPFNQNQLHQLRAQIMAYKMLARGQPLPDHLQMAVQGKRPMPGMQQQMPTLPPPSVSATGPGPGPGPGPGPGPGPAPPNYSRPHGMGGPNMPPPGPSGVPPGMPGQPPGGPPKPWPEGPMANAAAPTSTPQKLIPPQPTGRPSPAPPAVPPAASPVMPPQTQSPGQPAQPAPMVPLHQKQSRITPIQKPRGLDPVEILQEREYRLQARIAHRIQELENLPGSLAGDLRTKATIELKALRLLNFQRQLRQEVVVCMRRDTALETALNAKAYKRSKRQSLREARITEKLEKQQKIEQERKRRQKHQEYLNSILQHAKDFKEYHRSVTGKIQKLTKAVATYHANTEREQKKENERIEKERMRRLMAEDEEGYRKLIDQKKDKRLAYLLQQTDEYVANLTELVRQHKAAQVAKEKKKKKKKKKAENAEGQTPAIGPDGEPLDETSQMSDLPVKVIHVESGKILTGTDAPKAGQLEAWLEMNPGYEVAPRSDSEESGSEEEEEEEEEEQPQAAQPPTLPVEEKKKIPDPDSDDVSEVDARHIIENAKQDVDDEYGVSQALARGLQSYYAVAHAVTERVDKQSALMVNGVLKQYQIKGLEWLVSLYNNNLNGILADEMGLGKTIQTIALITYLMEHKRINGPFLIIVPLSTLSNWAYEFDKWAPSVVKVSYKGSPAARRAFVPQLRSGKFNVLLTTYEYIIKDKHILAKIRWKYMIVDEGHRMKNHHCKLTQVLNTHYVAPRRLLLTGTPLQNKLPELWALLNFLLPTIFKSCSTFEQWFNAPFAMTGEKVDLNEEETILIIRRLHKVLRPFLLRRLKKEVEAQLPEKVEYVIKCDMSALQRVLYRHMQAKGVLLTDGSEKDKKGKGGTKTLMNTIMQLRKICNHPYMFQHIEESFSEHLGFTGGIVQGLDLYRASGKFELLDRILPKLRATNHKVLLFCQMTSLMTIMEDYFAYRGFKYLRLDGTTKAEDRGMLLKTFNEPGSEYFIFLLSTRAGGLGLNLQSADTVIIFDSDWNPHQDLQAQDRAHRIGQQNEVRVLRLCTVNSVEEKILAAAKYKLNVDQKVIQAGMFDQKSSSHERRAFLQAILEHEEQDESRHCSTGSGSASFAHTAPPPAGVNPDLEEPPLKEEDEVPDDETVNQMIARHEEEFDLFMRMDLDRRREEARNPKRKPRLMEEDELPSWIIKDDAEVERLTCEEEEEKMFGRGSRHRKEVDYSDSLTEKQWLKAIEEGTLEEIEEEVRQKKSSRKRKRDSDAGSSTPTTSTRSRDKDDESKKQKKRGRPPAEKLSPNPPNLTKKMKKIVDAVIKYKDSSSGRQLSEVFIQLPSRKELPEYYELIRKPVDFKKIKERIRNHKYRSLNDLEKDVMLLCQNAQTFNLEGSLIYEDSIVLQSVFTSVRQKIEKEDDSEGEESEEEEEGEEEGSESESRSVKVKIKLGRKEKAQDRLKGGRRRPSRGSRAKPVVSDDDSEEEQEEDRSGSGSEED
assay method text: HiBiT-BRG1 cell-based degradation assay (Nano-Glo HiBiT Lytic Detection, 24 h)
setup conditions: HeLa cells expressing HiBit-BRG1 and LgBit, read-out: BRG1 HiBit Degradation IC50
So I've got a bunch of compounds here, and I need their DC50 values.

Exercise: May I ask what DC50 has been recorded for CS(=O)(=O)n1ccc(C(=O)N[C@@H](COCc2ccc(CNC(=O)CCN3CC4(C3)CN(c3ccc5c(c3)C(=O)N(C3CCC(=O)NC3=O)C5=O)C4)cc2)C(=O)Nc2nc(-c3ccccc3)cs2)c1 (stereo partly drawn) ?
Key: 0.1 to 1 µM

Exercise: May I ask what DC50 has been recorded for Cc1ncsc1-c1ccc(CNC(=O)[C@@H]2C[C@@H](O)CN2C(=O)[C@@H](NC(=O)CCCC(=O)NCCOc2cc(-c3cccc(-c4csc(NC(=O)CNC(=O)c5ccn(S(C)(=O)=O)c5)n4)c3)ccn2)C(C)(C)C)cc1 ?
Key: > 10 µM

Exercise: May I ask what DC50 has been recorded for CS(=O)(=O)n1ccc(C(=O)NCC(=O)Nc2nc(-c3cccc(-c4ccnc(C5(C(=O)N6CC(CCOc7cccc8c7C(=O)N(C7CCC(=O)NC7=O)C8=O)C6)CC5)c4)c3)cs2)c1 (stereo not drawn) ?
Key: > 10 µM

Exercise: May I ask what DC50 has been recorded for CS(=O)(=O)n1ccc(C(=O)N[C@@H](CCOCCCC(=O)NCCNc2ccc3c(c2)C(=O)N(C2CCC(=O)NC2=O)C3=O)C(=O)Nc2nc(-c3ccccc3)cs2)c1 (stereo partly drawn) ?
Key: > 10 µM

Exercise: May I ask what DC50 has been recorded for CN(CC(=O)NCCCCCCCCNc1ccc2c(c1)C(=O)N(C1CCC(=O)NC1=O)C2=O)c1cc(-c2cccc(-c3csc(NC(=O)CNC(=O)c4ccn(S(C)(=O)=O)c4)n3)c2)ccn1 (stereo not drawn) ?
Key: > 10 µM

Exercise: May I ask what DC50 has been recorded for CS(=O)(=O)n1ccc(C(=O)NCC(=O)Nc2nc(-c3cccc(-c4ccnc(C5(C(=O)N6CCC7(CC6)CC(Oc6ccc8c(c6)C(=O)N(C6CCC(=O)NC6=O)C8=O)C7)CC5)c4)c3)cs2)c1 (stereo not drawn) ?
Key: < 0.1 µM

Exercise: May I ask what DC50 has been recorded for CS(=O)(=O)n1ccc(C(=O)NCC(=O)Nc2nc(-c3cccc(-c4cccc(CNC(=O)CCCCOc5cccc6c5C(=O)N(C5CCC(=O)NC5=O)C6=O)c4)c3)cs2)c1 (stereo not drawn) ?
Key: > 10 µM

Exercise: May I ask what DC50 has been recorded for CS(=O)(=O)n1ccc(C(=O)N[C@@H](COCc2ccc(C(=O)N3CCN(CCOc4ccc5c(c4)C(=O)N(C4CCC(=O)NC4=O)C5=O)CC3)cc2)C(=O)Nc2nc(-c3ccccc3)cs2)c1 (stereo partly drawn) ?
Key: > 10 µM

Exercise: May I ask what DC50 has been recorded for Cc1ncsc1-c1ccc(CNC(=O)[C@@H]2C[C@@H](O)CN2C(=O)[C@@H](NC(=O)COCCOCCNC(=O)CCCOCC[C@H](NC(=O)c2ccn(S(C)(=O)=O)c2)C(=O)Nc2nc(-c3ccccc3)cs2)C(C)(C)C)cc1 ?
Key: > 10 µM
